Would you kindly list switch fluorescence ratio for each of these sequences?
System: ATP;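 also: ATP exposure 15 min at 22 °C before imaging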
Experiment: switch fluorescence ratio, 500 uM ATP over buffer (Cy3 cluster intensity, sum of 5 cycles each) (fold (ratio)); higher = stronger signal-on switching upon ATP binding; sequences stand for … in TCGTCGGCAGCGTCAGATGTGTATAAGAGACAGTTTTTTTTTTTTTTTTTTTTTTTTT…TC
Settings: aptamer strand: ATP DNA aptamer (quencher-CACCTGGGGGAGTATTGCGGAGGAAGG + anchor), 100 nM annealed; ATP concentration: 500 uM
Just the number, please.

switch fluorescence ratio value, target or system ATP, for GCTAGTTTCG : 1.03

switch fluorescence ratio value, target or system ATP, for CAGGTAAAAG : 1.01

switch fluorescence ratio value, target or system ATP, for AGTTTACCGG : 1.01

switch fluorescence ratio value, target or system ATP, for AAAAGGGGGC : 1.01

switch fluorescence ratio value, target or system ATP, for TCTTTTTATA : 1.04

switch fluorescence ratio value, target or system ATP, for CCTCAGGGGC : 2.39

switch fluorescence ratio value, target or system ATP, for CGGGTCTATT : 0.965

switch fluorescence ratio value, target or system ATP, for TGGGTGTTGG : 1.01

switch fluorescence ratio value, target or system ATP, for TCTGGATAGG : 0.962

switch fluorescence ratio value, target or system ATP, for TGGGGGCTTC : 0.99

switch fluorescence ratio value, target or system ATP, for GGGTTTCAGA : 1.01

switch fluorescence ratio value, target or system ATP, for GTGAAGGGTA : 0.985

switch fluorescence ratio value, target or system ATP, for AGACCATCGT : 1.01

switch fluorescence ratio value, target or system ATP, for AGGTTTGCAA : 1.04

switch fluorescence ratio value, target or system ATP, for TGGTTGGTTG : 0.988

switch fluorescence ratio value, target or system ATP, for GTCGGCAGGG : 1.06

switch fluorescence ratio value, target or system ATP, for GAACGTGGGT : 0.987

switch fluorescence ratio value, target or system ATP, for CGGGTTCAGT : 0.974

switch fluorescence ratio value, target or system ATP, for GAGATGGGGA : 0.991

switch fluorescence ratio value, target or system ATP, for TTAAAAGTTA : 1.03

====

Tested on: ATP;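 also: ATP exposure 15 min at 22 °C before imaging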
Assay: switch fluorescence ratio, 500 uM ATP over buffer (Cy3 cluster intensity, sum of 5 cycles each) (fold (ratio)); higher = stronger signal-on switching upon ATP binding; sequences stand for … in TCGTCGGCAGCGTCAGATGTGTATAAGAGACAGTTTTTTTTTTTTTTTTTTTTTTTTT…TC
Details: aptamer strand: ATP DNA aptamer (quencher-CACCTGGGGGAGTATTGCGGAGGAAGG + anchor), 100 nM annealed; ATP concentration: 500 uM
Would you kindly list switch fluorescence ratio for each of these sequences?
Just the number, please.

switch fluorescence ratio measured on TGGATTATTG = 0.944

switch fluorescence ratio measured on ACTTAAAAGC = 1

switch fluorescence ratio measured on ATTAAGTTTC = 0.968

switch fluorescence ratio measured on TTCAGCTTTT = 0.984

switch fluorescence ratio measured on CGTAGTGGAA = 0.992

switch fluorescence ratio measured on TTAATCTTAA = 0.972

switch fluorescence ratio measured on CCTGGGGAGT = 1.04

switch fluorescence ratio measured on ACATAGTGCT = 1

switch fluorescence ratio measured on TGCCAGTTTG = 0.991

switch fluorescence ratio measured on ACATCCGTCG = 1.06

switch fluorescence ratio measured on GCATTTGCTT = 1.01

switch fluorescence ratio measured on TGAAGTATTT = 1

switch fluorescence ratio measured on GTTTTACATT = 1.02

switch fluorescence ratio measured on TGAGGTGCGT = 0.995

switch fluorescence ratio measured on TGCCGGAAGA = 1.02

switch fluorescence ratio measured on GCATCCGGCG = 1.04

switch fluorescence ratio measured on CATATTATGT = 1.02

switch fluorescence ratio measured on GTGAAAGGGT = 1.02

switch fluorescence ratio measured on CTTACGGGGT = 1.1

switch fluorescence ratio measured on TCTAGCAGTT = 1.05

switch fluorescence ratio measured on TTTGCATGCA = 1.03

switch fluorescence ratio measured on ACTACGTAAA = 0.997

switch fluorescence ratio measured on AGACTATGAG = 1.03

switch fluorescence ratio measured on ACCAACTCAG = 1.24

switch fluorescence ratio measured on AACGGCGGTG = 1.01

switch fluorescence ratio measured on CCAAAGGGCC = 1.01

switch fluorescence ratio measured on AGGGGCATAG = 1.01

switch fluorescence ratio measured on TTACTCGGTC = 0.99

switch fluorescence ratio measured on CTCCATATGT = 1.04

switch fluorescence ratio measured on AGGTTGACTG = 0.988

switch fluorescence ratio measured on TTATAAGGAA = 0.981

switch fluorescence ratio measured on ATGTTGGGAA = 0.978

switch fluorescence ratio measured on GAGGACTCGT = 1.01

switch fluorescence ratio measured on ATCCTATTT = 1.01

switch fluorescence ratio measured on GTCGTCGTCG = 0.972

switch fluorescence ratio measured on ATGGAGGGAC = 1.48

switch fluorescence ratio measured on TAAGTTGATC = 0.989

switch fluorescence ratio measured on ATCAGGAAAT = 1.01

switch fluorescence ratio measured on TAATCACAAT = 1.03

switch fluorescence ratio measured on TAGGTCCAAT = 1.01

switch fluorescence ratio measured on CGTTGGGAGT = 0.988

switch fluorescence ratio measured on TTTTGCTATT = 1.03

switch fluorescence ratio measured on TTCAGTGGTG = 0.965

switch fluorescence ratio measured on CACGGCACGA = 1.36

switch fluorescence ratio measured on CCGTTGAGCT = 1.11

switch fluorescence ratio measured on AGAGAAGAT = 0.988

switch fluorescence ratio measured on TGATGTGGGA = 1.03

switch fluorescence ratio measured on GTTTTAATGG = 1.01

switch fluorescence ratio measured on CCTGTGAGTT = 0.986

switch fluorescence ratio measured on GATGTTAATA = 0.985

switch fluorescence ratio measured on TTTCGCGGTT = 1.02

switch fluorescence ratio measured on AGAATGCAGC = 0.995

switch fluorescence ratio measured on TAAGGTTTTT = 1.03

switch fluorescence ratio measured on TTTCATGTCT = 0.992

switch fluorescence ratio measured on CGTGACGAGC = 1.12

switch fluorescence ratio measured on TCGAATTTTT = 1.02

switch fluorescence ratio measured on AACGCGACAT = 1.29

switch fluorescence ratio measured on CGGAGATGGC = 1.05

switch fluorescence ratio measured on ATTTCTTTCA = 1.02

switch fluorescence ratio measured on CTTAGTAGTT = 1.01

switch fluorescence ratio measured on TGGTTAATGC = 1.48

switch fluorescence ratio measured on TTTGAGGGTA = 1.03

switch fluorescence ratio measured on ACTACAGCTC = 1.15

switch fluorescence ratio measured on TGATTTATTC = 0.963

switch fluorescence ratio measured on GCTCAATCTA = 1.01

switch fluorescence ratio measured on CATATCTAAG = 1

switch fluorescence ratio measured on TTTTCAGCTG = 1.03

switch fluorescence ratio measured on GAACCTCGTG = 1.03

switch fluorescence ratio measured on CAAAAAATC = 1.02

switch fluorescence ratio measured on GTAAAAGTTT = 0.979

switch fluorescence ratio measured on TCGGGTCCGT = 0.982

switch fluorescence ratio measured on TATCCACCGT = 1.08

switch fluorescence ratio measured on TCGCCTGGGG = 1.1

switch fluorescence ratio measured on GAAAATTGGT = 0.997

switch fluorescence ratio measured on TGGAAAAACT = 1.08

switch fluorescence ratio measured on CAGTATAAAG = 0.974

switch fluorescence ratio measured on TTACGTTACG = 1.34

switch fluorescence ratio measured on TTCTATAATT = 1.03

switch fluorescence ratio measured on CAATGGCCGA = 0.998

switch fluorescence ratio measured on CGATTCAACG = 1.02

switch fluorescence ratio measured on CGGGATTTAG = 1

switch fluorescence ratio measured on GTGGGACCTT = 1.06

switch fluorescence ratio measured on ACGTGACCAT = 1.33

switch fluorescence ratio measured on CTCAAAAGA = 1.11

switch fluorescence ratio measured on GGGGCTGGCG = 1.03

switch fluorescence ratio measured on GATTTTTTAG = 0.998

Values were extracted from the supplement of paper PMC10126150.
